B1: CPEB3 Ribozyme (parent)
chain: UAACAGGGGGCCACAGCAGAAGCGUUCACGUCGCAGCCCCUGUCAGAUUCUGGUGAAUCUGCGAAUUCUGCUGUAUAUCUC

variants of: B1; experiment: self-cleavage, relative activity (ratio to wild type); higher = more cleavage; in vitro, sequencing
Everything with self-cleavage lower than 0.5 is No; everything else, including exactly 0.5, is Yes.

Known results for variants:
- Variant: "G8U A64C"
  Answer label: "No"
- Variant: "A3G C12A"
  Answer label: "Yes"
- Variant: "A13U U76C"
  Answer label: "Yes"

Input line: Is self-cleavage at least 0.5? Consider A64C C81U
Output line: No

Input line: Is self-cleavage at least 0.5? Consider G30U U49A
Output line: No

Input line: Is self-cleavage at least 0.5? Consider A65U U67C
Output line: No

Input line: Is self-cleavage at least 0.5? Consider C32A A47G
Output line: No
